tested on: Saccharomyces cerevisiae; assay: protein stability index of tFT-peptide fusion (C-terminal peptide) (PSI (0-1 scale)); higher = more stable (slower turnover); conditions: genetic background: wild type; temperature: 30 C
Please respond with reported protein stability index for every item in the list.
Numbers only.

Before answering, review these 3 worked examples.
[[record]]
sequence_content = "AAPSTSPGPRPA"
metric_name = "protein stability index"
data_value = 0.652

[[record]]
sequence_content = "GAWFTSSPVFGS"
metric_name = "protein stability index"
data_value = 0.731

[[record]]
sequence_content = "PPLPPPLPHRPL"
metric_name = "protein stability index"
data_value = 0.716


List the reported protein stability index of each sequence below.
1. PEEPSANWTGFF
2. SSCFVIRSLSNP
3. RKIRKKRERKGE
4. LYRSLLLSFCVL

## Result
0.598
0.72
0.714
0.483

List the reported protein stability index of each sequence below.
1. KTQNVNDQGEET
2. PPSPLQGRICFV
3. GSAHSFTLLVLP
4. ATAVMILCFRWC
5. YLAYHVAAPGPV

## Result
[0.644, 0.698, 0.742, 0.419, 0.686]

List the reported protein stability index of each sequence below.
1. LDVQPVHPVDPE
2. RYRVRIVVFGLV

## Result
[0.778, 0.14]

List the reported protein stability index of each sequence below.
1. YIGGMRSHYASP
2. VYQLTKNERVIK
3. VSRRSGVGICHL

## Result
0.734
0.643
0.609

====

test system: Saccharomyces cerevisiae; test: protein stability index of tFT-peptide fusion (C-terminal peptide) (PSI (0-1 scale)); higher = more stable (slower turnover); details: genetic background: wild type; temperature: 30 C
Please respond with reported protein stability index for every item in the list.

[[record]]
sequence_content = "GGGGGGGVAGGV"
target_or_test_system = "Saccharomyces cerevisiae"
metric_name = "protein stability index"
data_value = 0.715

[[record]]
sequence_content = "CPLPTAFRSTHV"
target_or_test_system = "Saccharomyces cerevisiae"
metric_name = "protein stability index"
data_value = 0.691

[[record]]
sequence_content = "PSPPAQSASLFF"
target_or_test_system = "Saccharomyces cerevisiae"
metric_name = "protein stability index"
data_value = 0.663

[[record]]
sequence_content = "QGSWLRSVNLEY"
target_or_test_system = "Saccharomyces cerevisiae"
metric_name = "protein stability index"
data_value = 0.617

[[record]]
sequence_content = "RFSTRAVRLGPC"
target_or_test_system = "Saccharomyces cerevisiae"
metric_name = "protein stability index"
data_value = 0.705

[[record]]
sequence_content = "PLPAPSPLPSPL"
target_or_test_system = "Saccharomyces cerevisiae"
metric_name = "protein stability index"
data_value = 0.735

[[record]]
sequence_content = "SPPPALLPPLFP"
target_or_test_system = "Saccharomyces cerevisiae"
metric_name = "protein stability index"
data_value = 0.73

[[record]]
sequence_content = "GVGGGSSWVGYG"
target_or_test_system = "Saccharomyces cerevisiae"
metric_name = "protein stability index"
data_value = 0.912

[[record]]
sequence_content = "GGPRDNEGSWWV"
target_or_test_system = "Saccharomyces cerevisiae"
metric_name = "protein stability index"
data_value = 0.712

[[record]]
sequence_content = "LLVPCLQPPFRV"
target_or_test_system = "Saccharomyces cerevisiae"
metric_name = "protein stability index"
data_value = 0.622


List the reported protein stability index of each sequence below.
1. DRPSTNPISNVG
2. GVLVESGSVESR

## Result
[0.699, 0.744]

List the reported protein stability index of each sequence below.
1. RWARGGSRGGGG
2. EREGGWEVNKWR
3. PPPSPCHPPSPP

## Result
[0.703, 0.757, 0.67]

====

test system: Saccharomyces cerevisiae; test: protein stability index of tFT-peptide fusion (C-terminal peptide) (PSI (0-1 scale)); higher = more stable (slower turnover); settings: genetic background: wild type; temperature: 30 C
Record condition met whenever protein stability index is at 0.7 or higher; record condition not met when lower.

Sample answers from the record:
[[record]]
sequence_content = "NKGHGAHSRECE"
qualitative_label = "condition not met"

[[record]]
sequence_content = "SLRSPPPPPGIL"
qualitative_label = "condition met"

[[record]]
sequence_content = "RVLCLCATSKSR"
qualitative_label = "condition not met"

[[record]]
sequence_content = "VCLCVIICSMSV"
qualitative_label = "condition not met"


## Task Does the sequence ELHPPIPYPSRP have recorded protein stability index that is 0.7 or more?
## Result condition not met

## Task Does the sequence LSPPPLSFPFSA have recorded protein stability index that is 0.7 or more?
## Result condition not met

## Task Does the sequence TSNGSGLMFQSQ have recorded protein stability index that is 0.7 or more?
## Result condition not met

## Task Does the sequence GRKPGGGRRAPE have recorded protein stability index that is 0.7 or more?
## Result condition not met

## Task Does the sequence LTSSGLSFSAVL have recorded protein stability index that is 0.7 or more?
## Result condition met

## Task Does the sequence SCLLVVVSTSGN have recorded protein stability index that is 0.7 or more?
## Result condition not met

## Task Does the sequence VLFVRGHTLWLM have recorded protein stability index that is 0.7 or more?
## Result condition not met

## Task Does the sequence RARVGGRQLRRV have recorded protein stability index that is 0.7 or more?
## Result condition met

## Task Does the sequence LFWARLSLVSLS have recorded protein stability index that is 0.7 or more?
## Result condition not met

## Task Does the sequence LFLLFLCLSSLF have recorded protein stability index that is 0.7 or more?
## Result condition not met

## Task Does the sequence LRVFPVFSWFDR have recorded protein stability index that is 0.7 or more?
## Result condition not met

====

tested on: Saccharomyces cerevisiae; assay: protein stability index of tFT-peptide fusion (C-terminal peptide) (PSI (0-1 scale)); higher = more stable (slower turnover); conditions: genetic background: wild type; temperature: 30 C
Record label 1 whenever protein stability index is at 0.7 or higher; record label 0 when lower.

Sample answers from the record:
[[record]]
sequence_content = "SQGNVYLPGVAW [NOC4 C-terminal 12 aa]"
qualitative_label = "label 1"

[[record]]
sequence_content = "EQSEQPEQHQDK [RPN10 C-terminal 12 aa]"
qualitative_label = "label 0"

[[record]]
sequence_content = "EKCSYYFLSRAH [YNL017C C-terminal 12 aa]"
qualitative_label = "label 0"


## Task Does the sequence VFKSKCKKIYIG [DGR1 C-terminal 12 aa] have recorded protein stability index that is 0.7 or more?
## Result label 0

## Task Does the sequence PGVMLGRWKVTA [VPS61 C-terminal 12 aa] have recorded protein stability index that is 0.7 or more?
## Result label 0

====

Please respond with reported protein stability index for every item in the list.
tested on: Saccharomyces cerevisiae; assay: protein stability index of tFT-peptide fusion (C-terminal peptide) (PSI (0-1 scale)); higher = more stable (slower turnover); conditions: genetic background: wild type; temperature: 30 C
Give bare numbers.

Before answering, review these 4 worked examples.
[[record]]
sequence_content = "GWVRCGGGAGVG"
metric_name = "protein stability index"
data_value = 0.622

[[record]]
sequence_content = "HWLGCDESRGWV"
metric_name = "protein stability index"
data_value = 0.668

[[record]]
sequence_content = "GINYSNKKILVN"
metric_name = "protein stability index"
data_value = 0.444

[[record]]
sequence_content = "RCLGDLLARQTP"
metric_name = "protein stability index"
data_value = 0.635


List the reported protein stability index of each sequence below.
1. MALAVRVVPCGA
2. LSCTTSSRPSPP

## Result
0.397
0.699

List the reported protein stability index of each sequence below.
1. SAGYFYSWNSSD
2. GYRYMWLWRLSA
3. GRRDGRWGQIVR

## Result
[0.708, 0.178, 0.679]

Per the record, NIKKKKKETKNN has protein stability index of 0.676

====

tested on: Saccharomyces cerevisiae; assay: protein stability index of tFT-peptide fusion (C-terminal peptide) (PSI (0-1 scale)); higher = more stable (slower turnover); conditions: genetic background: cdc53-1; temperature: 37 C
Metric Name: protein stability index
One number for each entry.

Before answering, review these 3 worked examples.
[[record]]
sequence_content = "LISGVCLRVKVG"
metric_name = "protein stability index"
data_value = 0.597

[[record]]
sequence_content = "GGKTLSIFLRIS"
metric_name = "protein stability index"
data_value = 0.693

[[record]]
sequence_content = "SVLVSVVLFVRS"
metric_name = "protein stability index"
data_value = 0.237


List the reported protein stability index of each sequence below.
1. FIGVLVFSWLLF
2. VFFLAFYFYRCF
3. GFFFFHGLCFFV
4. ASIEVGNVIKQM
5. FSLWSRRSITVY
6. ILVLKFLRLLSA

## Result
1: 0.371; 2: 0.464; 3: 0.513; 4: 0.719; 5: 0.0405; 6: 0.555

List the reported protein stability index of each sequence below.
1. IVGVLAVLVRPV
2. LYSLRRNWLRTP
3. VVTFLCPLVGHV
4. SCLLVVVSTSGN
5. WLSWATRRIVLG
6. LFRGVWYYFLVR
7. RRRRGGQSPALR

## Result
1: 0.561; 2: 0.726; 3: 0.501; 4: 0.573; 5: 0.611; 6: 0.527; 7: 0.674

List the reported protein stability index of each sequence below.
1. LVPYLWWLVFAL
2. LSPPPLSFPFSA
3. YCFLSWVLMCCF
4. RNWVVDGWRRFP
5. VNRRCWISRTLP

## Result
1. 0.125
2. 0.753
3. 0.461
4. 0.743
5. 0.716

List the reported protein stability index of each sequence below.
1. YFNGLLPLVLVF
2. IVIFQTAYVVRI
3. LPIFWVWFSVFR
4. EMPRLSKAIRVT
5. GAWLAVCVVREG

## Result
[0.0434, 0.233, 0.243, 0.57, 0.568]

List the reported protein stability index of each sequence below.
1. ARWNTDRRRRQL
2. KCWSGTVMVRLG
3. GRPYHLCLFSCF

## Result
[0.711, 0.72, 0.754]

List the reported protein stability index of each sequence below.
1. GSMGGVGVLGGD
2. PSLPPLPPFAAL
3. PPGLLPPCLLVV
4. DLPKAYCIEMIG
5. PRQGGDFVARVG
6. KFKRLTKFYARQ

## Result
0.653
0.741
0.373
0.718
0.726
0.684

List the reported protein stability index of each sequence below.
1. FLSVPHLLFLFI
2. ARKWVAVTVTLW
3. CSSLIMIITCVN
4. LVVWASLVRVEG
5. PDRSTILHISGF
6. WGLGWRGALVAV
7. LPSPPSSPPLRP

## Result
0.634
0.232
0.289
0.323
0.761
0.42
0.572

List the reported protein stability index of each sequence below.
1. VWPLAFFLRFFI
2. LFLEVCFFRLYF
3. VTTTWTWTVRLC

## Result
[0.602, 0.555, 0.631]
